Parameter half-life: see the listing below.
experiment: The half-life period in vitro in plasma; assay type: ADME, cell-free

Sample records with half-life:
1. CCOC(=O)C(C(=O)OCC)N(CCCC(=O)O)C(=O)/C(C)=C/c1ccc(C(=O)Oc2ccc(C(=N)N)cc2)cc1 ... 29 min
2. CCOC(=O)CN(Cc1ccccc1)C(=O)/C(C)=C/c1ccc(C(=O)Oc2ccc(C(=N)N)cc2)cc1 ... < 1 min
3. C/C(=C\c1ccc(C(=O)Oc2ccc(C(=N)N)cc2)cc1)C(=O)N(CC(=O)O)C1CCCCC1 ... > 60 min
4. CCOC(=O)CCCN(C(=O)/C(C)=C/c1ccc(C(=O)Oc2ccc(C(=N)N)cc2)cc1)C(C(=O)OCC)C(=O)OCC ... < 1 min
5. C=CCN(CCC(=O)O)C(=O)/C(C)=C/c1ccc(C(=O)Oc2ccc(C(=N)N)cc2)cc1 ... 47 min

Input: Entry `CCOC(=O)CN(C(=O)/C(C)=C/c1ccc(C(=O)Oc2ccc(C(=N)N)cc2)cc1)C1CCCCC1` : reported half-life = ?
Output: < 5 min

Input: Entry `CCN(CC(=O)O)C(=O)/C(C)=C/c1ccc(C(=O)Oc2ccc(C(=N)N)cc2)cc1` : reported half-life = ?
Output: 60 min

// provenance: ChEMBL document CHEMBL1128185
